Value source: patent US10456344B2

Examples of compounds with documented RLU follow.
Tested on: antioxidant response element (ARE)
method: HaCaT cell with antioxidant response element (ARE) reporter gene (luciferase) assay
Assay type: cell-based, human
recorded conditions: 1 μM single compound, n = 3
measured parameter: RLU (RLU)

| compound | measured parameter | observed value |
| --- | --- | --- |
| Cl.O=C(O)Cc1cccc(OCCCN(Cc2cccc(C(F)(F)F)c2Cl)CC(c2ccccc2)c2ccccc2)c1 [GW 3965 hydrochloride] | RLU | 1.02 |
| C=C1C(=O)O[C@@H]2C[C@@]3(C)[C@@H](O)C[C@@H](O)C(=C)[C@@H]3C[C@H]12 [granilin] | RLU | 3.77 |
| CC[C@H](/C=C/[C@@H](C)[C@H]1CC[C@H]2[C@@H]3CC=C4C[C@@H](O)CC[C@]4(C)[C@H]3CC[C@]12C)C(C)C [stigmasterol] | RLU | 0.78 |
| CC(C)CC[C@@H](O)[C@@H](C)[C@H]1CC[C@H]2[C@@H]3CC=C4C[C@@H](O)CC[C@]4(C)[C@H]3CC[C@]12C [22(R)-hydroxycholesterol] | RLU | 1.17 |
